- Test system: HT29 colon
- protocol text: NCI-60 one-dose screen, 48 h (100 = growth as untreated, 0 = no growth, -100 = all killed)
- condition info: 10 µM unless noted
About 83,000 compounds went through this panel and 20% of them were active in at least one assay; those are over-represented in the sample as a whole.
Given measured growth, output MET if it is greater than or equal to 10% and NOT MET if not.

INSERT INTO measurements (compound, label_value) VALUES
  ('NCC(=O)NS(=O)(=O)OC[C@H]1O[C@@H](n2cnc3c(N)ncnc32)[C@H](O)[C@@H]1O', 'NOT MET'),
  ('OC(COc1ccccc1Cl)CN1CCN(c2ccc(Cl)cc2)CC1 (configuration not stated)', 'MET'),
  ('Nc1nc(-c2cc3c(cc2Cl)NC(=O)/C3=C/c2ccccc2)cs1', 'MET'),
  ('O=C1c2ccccc2OC=C(c2ccccc2)N1CCCCN1CCCCC1', 'MET'),
  ('N#CC(C#N)=C(C#N)c1c[nH]c2ccccc12', 'MET');

Is reported growth greater than or equal to 10% here: `Nc1ncnc2c1c(-c1ccc(Oc3ccccc3)cc1)nn2C[C@H]1SSC[C@H]1O`
NOT MET

Let us now turn to `Oc1ccc(Cl)cc1Sc1cc(Cl)ccc1O`
MET

Could you do the same for `c1ccc([Se]CCCN2CCN(CCC[Se]c3ccccc3)CC2)cc1` , please?
MET

Quick one: CC1=C[S+](c2ccccc2)c2cccc3cc4ccccc4c1c23 (configuration not stated)
NOT MET

And the next one, CCOC(=O)C1=C(N)Oc2cc(OC)ccc2C1c1ccc(F)c(F)c1 (configuration not stated) ?
NOT MET

---

- Tested on: MCF7 breast
- protocol text: NCI-60 one-dose screen, 48 h (100 = growth as untreated, 0 = no growth, -100 = all killed)
- condition info: 10 µM unless noted
Compounds without any hit were thinned out: in the full panel of roughly 83,000, 20% have a hit.
Reported growth by item:
Express the result in % but write the number alone.

INSERT INTO assay_data (compound, tested_target, number) VALUES
  ('CCCCCCCCCCCCCCCCNc1ccccc1', 'MCF7 breast', 90.1);

Please give the measured growth for this compound: CCC1S/C(=N\N=C(/C)c2cccs2)N(c2ccccc2)C1=O (stereo unspecified)
84.5

Also, COc1ccc2c(c1)OC(N)=C(C#N)C2c1ccc(F)cc1 (stereo unspecified) please.
18.1

---

- Test system: BT-549 breast
- protocol text: NCI-60 one-dose screen, 48 h (100 = growth as untreated, 0 = no growth, -100 = all killed)
- condition info: 10 µM unless noted
- Protocol: Growth inhibition of the BT-549 human tumor cell line is measured as a screen for anti-cancer activity. Cells are grown in 96 well plates and exposed to the test compound for 48 hours. Compounds are tested at a single concentration, which is 10^-5 M for most compounds. The reported endpoint is percent growth (GI% or GIPRCNT), where numbers from 0 - 100% represent growth inhibition, and numbers from -100% - 0 represent cell death. For example, a value of 40 represents 60% growth inhibition. […]
About 83,000 compounds went through this panel and 20% of them were active in at least one assay; those are over-represented in the sample as a whole.
Consider the following compounds and their measured growth readings.
# number only, unit % dropped from output

Consider the reported growth for these compounds:
INSERT INTO measurements (structure_as_smiles, endpoint_label, number) VALUES
  ('Cc1ccc(Cn2cc(COc3ccc4c5ccnc(C)c5n(CCCc5ccccc5)c4c3)nn2)cc1', 'growth', 90.1),
  ('O=C(O)c1cccc(S(=O)(=O)c2ccccc2)c1', 'growth', 107),
  ('O=C(/C=C/c1ccccc1)Oc1ccc(/C=C/c2cc(OC(=O)/C=C/c3ccccc3)cc(OC(=O)/C=C/c3ccccc3)c2)cc1', 'growth', 102),
  ('O=C(Nc1ccc(-n2ccc3c(NC(=O)c4ccccc4)ncnc32)cc1)c1ccc(Cl)c(C(F)(F)F)c1', 'growth', 55.1);

Now take the following compound into account.
Record request: growth value, item `CC(=O)O[C@@H]1[C@@H](OC(C)=O)[C@H](OC(C)=O)CO[C@H]1Nc1cccc2ccccc12`
89.1

---

- Test system: DU-145 prostate
- protocol text: NCI-60 one-dose screen, 48 h
- condition info: 10 µM unless noted
Compounds without any hit were thinned out: in the full panel of roughly 83,000, 20% have a hit. Activity calls are given as the source filed them. Rule for the calls: active = growth percent below 10; inactive = the rest.
Hello, when you answer, please use one of the following outcomes: true (1) (active), false (0) (inactive)

Field: example entries. Status: answers known.
INSERT INTO results (compound, tested_target, label_value) VALUES
  ('OCCOCC(F)(F)F', 'DU-145 prostate', 'false (0)'),
  ('CCCCN(CCCC)c1ccc(C(=N)c2ccc(N(C)C)cc2)cc1', 'DU-145 prostate', 'true (1)'),
  ('CCCC(=O)Oc1ccc(/C(=C(\C)c2ccc(OC)cc2)c2ccc(OCCN3CCCCC3)cc2)cc1', 'DU-145 prostate', 'false (0)');

Recorded test call requested for `COc1cc(/C=C/C(=O)c2c(C)[n+]([O-])c3ccccc3[n+]2[O-])ccc1O`
false (0)

# repeat for `O=C(Cn1c2ccccc2c2ccncc21)N/N=C\c1ccc2ccccc2c1`
true (1)

Item: `Oc1ccccc1/C=N/c1ccccn1`
false (0)

What do you get for `Cc1c(NC(=O)c2sc3nc4c(cc3c2N)CN(Cc2ccccc2)CC4)cccc1C(F)(F)F` ?
false (0)

// query: `CC(C)(CCN=C(N)Nc1ccccn1)c1ccc(C(F)(F)F)cc1`
false (0)

Please give the result for `COc1cc(-c2nc3ccccc3s2)ccc1OCc1nc2n(n1)S(=O)(=O)c1ccccc1N2C` too.
false (0)

Another: `CNCCCOc1c(Br)cc(CCNC(=O)/C(Cc2cc(Br)c(OC)c(Br)c2)=N/O)cc1Br`
true (1)

Here is the next compound: COc1ccccc1N1CCN(CC(O)COc2c(Br)c(Br)c(Br)c3c2OC(C)(C)C3)CC1 (configuration not stated)
false (0)

Then what about the compound `C=C1C(=O)O[C@H]2[C@H]1CC/C(COC(=O)OC/C1=C/CC[C@@]3(C)O[C@H]3[C@H]3OC(=O)[C@@H](CN(C)C)[C@@H]3CC1)=C\CC[C@@]1(C)O[C@@H]21` ?
false (0)

Do the same for `O=c1c2ccccc2sc2c(N3CCCC3)nc3ccccc3c12` please
false (0)

Lookup `COc1ccc(Cn2cc(COc3ccc4c5ccnc(C)c5n(CCCc5ccccc5)c4c3)nn2)cc1`
false (0)

What about this compound? `O=C(CSc1nnc(-c2cc3c([nH]c4ccccc43)c(-c3cccc(O)c3)n2)n1-c1ccccc1)c1ccccc1`
false (0)

Now try `O=C(Nc1ccc(-n2ccc3c(NC(=O)c4ccccc4)ncnc32)cc1)Nc1cccc(Cl)c1Cl` .
true (1)

Next compound up: `COC(=O)CCCNS(=O)(=O)c1cc(C(=O)Nc2ccc(NC(=O)c3cc(S(=O)(=O)NCCCC(=O)OC)c(O)c(O)c3O)cc2)c(O)c(O)c1O`
false (0)

Also `COc1cc(NS(=O)(=O)c2ccc(N)cc2)ncn1` ?
false (0)

Same thing, different compound: `FC(F)(F)c1cn(CC2CNC2)c2ncnc(Cl)c12`
false (0)

One more compound: `NC(=NCCCOc1ccc(F)cc1)Nc1ccc(Cl)c(Cl)c1`
false (0)

Then this compound: `O=c1c2ccccc2sc2c(NCCN3CCOCC3)nc3ccccc3c12`
false (0)

Next record, please: CC(C)(C)NCC(O)COc1c(Br)c(Br)c(Br)c2c1OC(C)(C)C2 (configuration not stated)
true (1)

---

growth: recorded values
- System: EKVX NSCLC
- protocol text: NCI-60 one-dose screen, 48 h (100 = growth as untreated, 0 = no growth, -100 = all killed)
- condition info: 10 µM unless noted
About 83,000 compounds went through this panel and 20% of them were active in at least one assay; those are over-represented in the sample as a whole. Calls of active or inactive are those of the source. How the source made its calls: active means growth percent below 10; inactive means the rest.

Field: example entries. Status: answers known.
INSERT INTO results (compound, endpoint_label, result) VALUES
  ('NC(CSC(c1ccccc1)(c1ccccc1)c1ccc(F)cc1)C(=O)O (stereo not given)', 'growth', '7.52% (active)'),
  ('O=C(O)c1cn(C2CC2)c2cc(N3CCN(C(=O)CSc4nc(NS(=O)(=O)c5ccccc5)cc(=O)[nH]4)CC3)c(F)cc2c1=O', 'growth', '105% (inactive)');

Request the reported growth associated with `COc1ccc(-c2nnc(NC(=O)CN3CCN(c4cc5c(cc4F)c(=O)c(C(=O)O)cn5C4CC4)CC3)s2)cc1OC`
108% (inactive)

Do the same for `COC(=O)/C=C/C(=O)c1cc(C)cc(C)c1O` please
95.9% (inactive)

Param item: `COc1ccc(C(=O)NC(=O)Nc2ccc3c(c2)NC(=O)/C3=C\c2[nH]c(C)c(CCC(=O)O)c2C)c(F)c1`
73.1% (inactive)
